Tested on: Rattus norvegicus
Assay: Antisecretory activity in Sprague-Dawley rat assessed as decrease in volume at 50 mg/kg, po administered 30 mins prior to pylorus ligation measured after 4 hrs relative to control
Assay type: functional
Parameters: scale not given: the % may be the effect or the level left
Mark label 1 for Activity under 40%, label 0 if at or over.

molecule	target_desc	discrete_label
CC1CCC2=C(C1)c1c(O)cc(C(C)C(C)CCc3ccc(F)cc3)cc1OC2(C)C (stereo not given)	Rattus norvegicus	label 0
CC1CCC2=C(C1)c1c(O)cc(C(C)CCCc3ccc(F)cc3)cc1OC2(C)C (stereo not given)	Rattus norvegicus	label 1
C#CCN1CCC2=C(C1)c1c(O)cc(C(C)CCCc3ccc(F)cc3)cc1OC2(C)C (stereo not given)	Rattus norvegicus	label 1
C#CCN1CCC2=C(C1)c1c(OC(=O)CCCN3CCCCC3)cc(C(C)CCCc3ccc(F)cc3)cc1OC2(C)C.Cl (stereo not given)	Rattus norvegicus	label 1

---

Tested on: Mus musculus
Assay: Anticonvulsant activity in po dosed mouse assessed as dose required to protect 80% of animal measured after 1 to 4 hrs by audiogenic seizure test
Type: functional
Listing of recorded Activity by entry.

molecule	Activity
CC1CCC2=C(C1)c1c(O)cc(C(C)CCCc3ccc(F)cc3)cc1OC2(C)C (stereo not given)	30 mg/kg
CCCCCc1cc(O)c2c(c1)OC(C)(C)[C@@H]1CCC(C)=C[C@@H]21	20 mg/kg
CC1CCC2=C(C1)c1c(O)cc(C(C)CCCc3ccccc3)cc1OC2(C)C (stereo not given)	30 mg/kg
CCCCCC(C)C(C)c1cc(O)c2c(c1)OC(C)(C)C1=C2CC(C)CC1 (stereo not given)	10 mg/kg

---

Tested on: Mus musculus
Test: Analgesic activity in po dosed mouse assessed as inhibition of acetic acid-induced writhing administered 30 mins prior to acetic acid challenge measured after 5 mins for 20 mins
Format: functional
Listing of recorded log10(ED50) by entry.
endpoint: log10(ED50) (log10 of the value in mg/kg)

compound	recorded_value
CC1CCC2=C(C1)c1c(OC(=O)CCCN3CCCCC3)cc(C(C)CCCc3ccc(F)cc3)cc1OC2(C)C.Cl (stereo unspecified)	0.25
CC1CCC2=C(C1)c1c(O)cc(C(C)C(C)CCc3ccc(F)cc3)cc1OC2(C)C (stereo unspecified)	0.65
C#CCN1CCC2=C(C1)c1c(O)cc(C(C)CCCc3ccc(F)cc3)cc1OC2(C)C (stereo unspecified)	0.72
C#CCN1CCC2=C(C1)c1c(OC(=O)CCCN3CCCCC3)cc(C(C)CCCc3ccc(F)cc3)cc1OC2(C)C.Cl (stereo unspecified)	1.01
C#CCN1CCC2=C(C1)c1c(O)cc(C(C)C(C)CCc3ccc(F)cc3)cc1OC2(C)C (stereo unspecified)	0.64
CN(C)CCCN1c2ccccc2Sc2ccc(Cl)cc21	0.38
CC1CSC2=C1c1c(O)cc(C(C)CCCc3ccc(F)cc3)cc1OC2(C)C (stereo unspecified)	0.92
CCCCCc1cc(O)c2c(c1)OC(C)(C)[C@@H]1CCC(C)=C[C@@H]21	1.63
C#CCN1CCC2=C(C1)c1c(O)cc(C(C)CCCCc3ccc(F)cc3)cc1OC2(C)C (stereo unspecified)	1.68
CC1CCC2=C(C1)c1c(O)cc(C(C)CCCc3ccccc3)cc1OC2(C)C (stereo unspecified)	1.23
CN1C(=O)CN=C(c2ccccc2)c2cc(Cl)ccc21	0.60
C#CCN1CCC2=C(C1)c1c(OC(=O)CCCN3CCOCC3)cc(C(C)CCCc3ccc(F)cc3)cc1OC2(C)C.Cl.Cl (stereo unspecified)	0.95
CCCCCC(C)C(C)c1cc(O)c2c(c1)OC(C)(C)C1=C2CC(C)CC1 (stereo unspecified)	0.48
CC1CCC2=C(C1)c1c(O)cc(C(C)CCCc3ccc(F)cc3)cc1OC2(C)C (stereo unspecified)	0.92
C#CCN1CCC2=C(C1)c1c(O)cc(C(C)C(C)CCCCC)cc1OC2(C)C (stereo unspecified)	0.63
CC(C)=CCN1CC[C@]2(C)c3cc(O)ccc3C[C@H]1[C@H]2C [(+)-PENTAZOCINE]	1.58

Ref: ChEMBL document CHEMBL3272295
